# tested.on: T1, GLP-1R in the INS1e assay (UniProt P32301 22-463, limits assumed)
# T1 sequence (looked up): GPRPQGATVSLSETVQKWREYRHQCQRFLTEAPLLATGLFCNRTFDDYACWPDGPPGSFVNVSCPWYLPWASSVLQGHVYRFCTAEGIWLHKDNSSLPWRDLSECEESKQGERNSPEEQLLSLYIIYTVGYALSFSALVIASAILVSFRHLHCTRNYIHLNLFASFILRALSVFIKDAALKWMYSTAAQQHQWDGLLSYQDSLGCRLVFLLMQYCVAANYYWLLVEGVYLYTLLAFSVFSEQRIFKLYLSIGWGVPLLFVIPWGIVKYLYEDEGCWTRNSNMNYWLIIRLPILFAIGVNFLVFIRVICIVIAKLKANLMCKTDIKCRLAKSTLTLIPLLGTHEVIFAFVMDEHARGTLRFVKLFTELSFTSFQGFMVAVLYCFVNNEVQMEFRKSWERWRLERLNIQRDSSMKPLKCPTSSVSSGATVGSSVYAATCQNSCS
# experimental.details: cell-based or functional assay
Starred links: 1 amine or outer side, 2 acyl side, 3 side chain; linkers in the order of their positions; H or OH if unused. Non-standard residues stand in square brackets, D forms with d. Groups on a side chain read outwards from the residue. Primed or numbered codes have the meaning given here. No end group written: not given here. *: point of attachment. γGlu = O=C(O)[C@H](CCC(=O)[*:2])N[*:1]; Palmitoyl = CCCCCCCCCCCCCCCC(=O)*; αMeF = C[C@](N)(Cc1ccccc1)C(=O)O; αMeK = C[C@](N)(CCCCN)C(=O)O; Lauroyl = CCCCCCCCCCCC(=O)*; αMeS = C[C@](N)(CO)C(=O)O; PEG2′ = not defined here; Aib = CC(C)(N)C(=O)O
measured.metric: INS1e assay EC50 (cAMP) n2 (nM)

# binder, endpoint.value
data = [
    ("H[Aib]EGS[αMeF]TSDK([PEG2′-PEG2′-γGlu-Lauroyl])SSYLEGEAA[αMeK]EFIAK([PEG2′-PEG2′-γGlu-Lauroyl])VVEGG-NH2 [SEQ ID NO: 257]", 0.342),
    ("H[Aib]EGS[αMeF]TSDVSK([PEG2′-PEG2′-γGlu-Lauroyl])YLEGEAA[αMeK]EFIAWK([PEG2′-PEG2′-γGlu-Lauroyl])VEGG-NH2 [SEQ ID NO: 253]", 2.14),
    ("H[Aib]EGS[αMeF]TSDV[αMeS]SK([PEG2′-PEG2′-γGlu-Lauroyl])LEGEAA[αMeK]EFIAWK([PEG2′-PEG2′-γGlu-Lauroyl])VEGG-NH2 [SEQ ID NO: 264]", 1.1),
]

I = H[Aib]EGS[αMeF]TSDVSK([PEG2′-PEG2′-γGlu-Lauroyl])YLEGEAAEEFIK([PEG2′-PEG2′-γGlu-Lauroyl])WVVEGG-NH2 [SEQ ID NO: 240]
II = H[Aib]EGS[αMeF]TSDV[αMeS]SK([PEG2′-PEG2′-γGlu-Lauroyl])LEGEAA[αMeK]EFIK([PEG2′-PEG2′-γGlu-Lauroyl])WVVEGG-NH2 [SEQ ID NO: 262]
Form: Entry with minimum INS1e assay EC50 (cAMP) n2 (choose one): I / II Return value: the label identifying the chosen record. II

P = H[Aib]EGS[αMeF]TSDV[αMeS]SYK([PEG2′-PEG2′-γGlu-Lauroyl])EGEAA[αMeK]EFIAK([PEG2′-PEG2′-γGlu-Lauroyl])VVEGG-NH2 [SEQ ID NO: 269]
Q = H[Aib]EGS[αMeF]TSDVSK([PEG2′-PEG2′-γGlu-Palmitoyl])YLEGEAA[αMeK]EFIK([PEG2′-PEG2′-γGlu-Palmitoyl])WVVEGG-NH2 [SEQ ID NO: 251]
Between P and Q , which one shows the larger INS1e assay EC50 (cAMP) n2 value? Return value: the label identifying the chosen record. Q
(Q: 7.85 nM, P: 0.181 nM)

P = H[Aib]EGS[αMeF]TSDVSK([PEG2′-PEG2′-γGlu-Palmitoyl])YLEGEAAEEFIK([PEG2′-PEG2′-γGlu-Palmitoyl])WVVEGG-NH2 [SEQ ID NO: 246]
Q = H[Aib]EGS[αMeF]TSDV[αMeS]SYK([PEG2′-PEG2′-γGlu-Lauroyl])EGEAA[αMeK]EFIAWK([PEG2′-PEG2′-γGlu-Lauroyl])VEGG-NH2 [SEQ ID NO: 270]
R = H[Aib]EGS[αMeF]TSDV[αMeS]SYK([PEG2′-PEG2′-γGlu-Lauroyl])EGEAA[αMeK]EFIK([PEG2′-PEG2′-γGlu-Lauroyl])WVVEGG-NH2 [SEQ ID NO: 268]
S = H[Aib]EGTFTSDVSK([PEG2′-PEG2′-γGlu-Lauroyl])YLEGEAAEEFIK([PEG2′-PEG2′-γGlu-Lauroyl])FVVEGG-NH2 [SEQ ID NO: 238]
List by increasing INS1e assay EC50 (cAMP) n2. Submit the labels in the order that the ranking request calls for. R, Q, S, P
